- Tested on: Cyperus serotinus, Rottb.
- assay.remarks: Preemergence weed control under flooded paddy conditions, CYPSE (Flatsedge)
- Format: in vivo
- test.conditions: 0.0320 kg/ha, preemergence, rated three to four weeks after treatment
measure.name: CYPSE herbicidal rating
// response body must contain only the number

# count of solved cases: 5
compound: CSCOCc1nsc2ccc(-n3c(=O)cc(C(F)(F)F)n(C)c3=O)cc12
CYPSE herbicidal rating: 0.0
//
compound: Cn1c(C(F)(F)F)cc(=O)n(-c2ccc3snc(COC(=O)c4ccncc4)c3c2)c1=O
CYPSE herbicidal rating: 2.0
//
compound: COC(=O)C(C)(C)c1nsc2ccc(-n3c(=O)cc(C(F)(F)F)n(C)c3=O)cc12
CYPSE herbicidal rating: 9.0
//
compound: Cc1ccc(OC(C)(C)C(=O)O)c(-c2nsc3ccc(-n4c(=O)cc(C(F)(F)F)n(C)c4=O)cc23)c1
CYPSE herbicidal rating: 0.0
//
compound: CC(C)OC(=O)C(C)(C)c1nsc2ccc(-n3c(=O)cc(C(F)(F)F)n(C)c3=O)cc12
CYPSE herbicidal rating: 6.0

Which value of CYPSE herbicidal rating has been reported for CC(C)N(C(C)C)S(=O)(=O)NC(=O)C(C)(C)c1nsc2ccc(-n3c(=O)cc(C(F)(F)F)n(C)c3=O)cc12 in the records?
0.0

Continue with COC(=O)C(C)Oc1cc(C)c(I)cc1-c1nsc2ccc(-n3c(=O)cc(C(F)(F)F)n(C)c3=O)cc12 (stereo not drawn)
0.0

Continue with Cc1ccc(CS(=O)(=O)NC(=O)c2nsc3ccc(-n4c(=O)cc(C(F)(F)F)n(C)c4=O)cc23)cc1
0.0

Continue with COC(=O)COc1ccc(I)cc1-c1nsc2ccc(-n3c(=O)cc(C(F)(F)F)n(C)c3=O)cc12
0.0
